I'd appreciate it if you could supply koff values for the items below.
- TARGET OR TEST SYSTEM: T1, recombinant human IL-23R/Fc chimera (R&D Systems) (human, UniProt Q5VWK5 24-355)
- T1 construct: Bought; also called rhIL23RFc
- T1 sequence (looked up): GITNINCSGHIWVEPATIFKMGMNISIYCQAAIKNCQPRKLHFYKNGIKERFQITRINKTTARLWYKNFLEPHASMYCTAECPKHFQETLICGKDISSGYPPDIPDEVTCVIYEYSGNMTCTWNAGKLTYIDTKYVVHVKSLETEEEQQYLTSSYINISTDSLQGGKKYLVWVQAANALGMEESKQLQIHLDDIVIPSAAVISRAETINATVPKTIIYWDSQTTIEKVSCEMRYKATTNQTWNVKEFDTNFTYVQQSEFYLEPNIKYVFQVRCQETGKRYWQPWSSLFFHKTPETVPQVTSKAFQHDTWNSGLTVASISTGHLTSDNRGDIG
- ASSAY DETAILS: SPR
Answers are plain numbers, in s⁻¹.

Some binders with known koff results, for comparison:
BINDER	MEASUREMENT NAME	READOUT UNIT	MEASURED RESULT
001-69.4G8 ATRIMER complex, mammalian-cell produced (designed binder, not shown: small tags and cut ends, Homotrimer of this chain (ATRIMER complex); produced in HEK293 cells, glycosylation possible., Mammalian-cell produced material; also called 4G8 m; 4G8 TN m) EPPTQKPKKIVNAKKDVVNTKMFEELKSRLDTLAQEVALLKEQQALQTVCLKGTKVHMKCFLAFTQTKTFHEASEDCISRGGTLSTPQTGSENDALYEYLRQSVGNEAEIWLGLNGSRRSGVWVDMTGARIAYKNWETEITAQPDGGFGVFGENCAVLSGAANGKWFDKRCRDQLPYICQFGIV	koff	s⁻¹	0.000751
001-87.A9E ATRIMER complex (designed binder, Homotrimer of this chain (ATRIMER complex)., not shown: A possible extra N-terminal Ser from the ompA junction is left out) EPPTQKPKKIVNAKKDVVNTKMFEELKSRLDTLAQEVALLKEQQALQTVCLKGTKVHMKCFLAFTQTKTFHEASEDCISRGGTLSTPQTGSENDALYEYLRQSVGNEAEIWLGLNGSALTNTWVDMTGARIAYKNWETEITAQPDGGLGYWGENCAVLSGAANGKWFDKRCRDQLPYICQFGIV	koff	s⁻¹	0.00033
105-20-1B3 ATRIMER complex (designed binder) EPPTQKPKKIVNAKKDVVNTKMFEELKSRLDTLAQEVALLKEQQALQTVCLKGTKVHMKCFLAFTQTKTFHEASEDCISRGGTLSTPQTGSENDALYEYLRQSVGNEAEIWLGLNGSALTNTWVDMTGARIAYKNWETEITAQPDGGFGYFGENCAVLSGAANGKWFDKRCRDQLPYICQFGIV	koff	s⁻¹	0.00031
105-20-1H1 ATRIMER complex (designed binder) EPPTQKPKKIVNAKKDVVNTKMFEELKSRLDTLAQEVALLKEQQALQTVCLKGTKVHMKCFLAFTQTKTFHEASEDCISRGGTLSTPQTGSENDALYEYLRQSVGNEAEIWLGLNGSPLTNTWVDMTGARIAYKNWETEITAQPDGGWGYFGENCAVLSGAANGKWFDKRCRDQLPYICQFGIV	koff	s⁻¹	0.00032
001-69.4D4 monomeric CTLD (designed binder, C-terminal tag not specified) ALQTVCLKGTKVHMKCFLAFTQTKTFHEASEDCISRGGTLSTPQTGSENDALYEYLRQSVGNEAEIWLGLNGSVRGRTWVDMTGARIAYKNWETEITAQPDGGIGVWGENCAVLSGAANGKWFDKRCRDQLPYICQFGIV	koff	s⁻¹	0.00419

For the 5 binders below, give their koff values.
1. 101-54-4B10 ATRIMER complex (designed binder) EPPTQKPKKIVNAKKDVVNTKMFEELKSRLDTLAQEVALLKEQQALQTVCLKGTKVHMKCFLAFTQTKTFHEASEDCISRGGTLSTPQTGSENDALYEYLRQSVGNEAEIWLGLNGSALTNTWVDMTGARIAYKNWERPPLYQPGGGFGYFGENCAVLSGAANGKWFDKRCRDQLPYICQFGIV
2. 105-08-2G7 ATRIMER complex (designed binder) EPPTQKPKKIVNAKKDVVNTKMFEELKSRLDTLAQEVALLKEQQALQTVCLKGTKVHMKCFLAFTQTKTFHEASEDCISRGGTLSTPQTGSENDALYEYLRQSVGNEAEIWLGLNGSPKTGTWVDMTGARIAYKNWETEITAQPDGGFGYFGENCAVLSGAANGKWFDKRCRDQLPYICQFGIV
3. 101-113-6C108 ATRIMER complex (designed binder, Forms a homotrimer through the tetranectin coiled coil; one protomer is given., not shown: C-terminal tag: His/Myc (pANA4) or HA-StrepII (pANA10)) EPPTQKPKKIVNAKKDVVNTKMFEELKSRLDTLAQEVALLKEQQALQTVCLKGTKVHMKCFLAFTQTKTFHEASEDCISRGGTLSTPQTGSENDALYEYLRQSVGNEAEIWLGLNGSALTNTWVDMTGARIAYKNWEPPPPHHPMGGFGVFGENCAVLSGAANGKWFDKRCRDQLPYICQFGIV
4. 101-113-6C102 ATRIMER complex (designed binder, not shown: C-terminal tag) EPPTQKPKKIVNAKKDVVNTKMFEELKSRLDTLAQEVALLKEQQALQTVCLKGTKVHMKCFLAFTQTKTFHEASEDCISRGGTLSTPQTGSENDALYEYLRQSVGNEAEIWLGLNGSNVTQTWVDMTGARIAYKNWEPPPPHHPQGGFGVFGENCAVLSGAANGKWFDKRCRDQLPYICQFGIV
5. 101-51-1A10 ATRIMER complex (designed binder, Forms a homotrimer through the tetranectin coiled coil; one protomer is given., not shown: C-terminal tag: His/Myc (pANA4) or HA-StrepII (pANA10)) EPPTQKPKKIVNAKKDVVNTKMFEELKSRLDTLAQEVALLKEQQALQTVCLKGTKVHMKCFLAFTQTKTFHEASEDCISRGGTLSTPQTGSENDALYEYLRQSVGNEAEIWLGLNGSALTNTWVDMTGARIAYKNWEHPLPPQPSGGFGYFGENCAVLSGAANGKWFDKRCRDQLPYICQFGIV

1. 0.000429
2. 0.000358
3. 0.000382
4. 0.000283
5. 0.000345

For the 2 binders below, give their koff values.
1. 105-08-2F6 ATRIMER complex (designed binder) EPPTQKPKKIVNAKKDVVNTKMFEELKSRLDTLAQEVALLKEQQALQTVCLKGTKVHMKCFLAFTQTKTFHEASEDCISRGGTLSTPQTGSENDALYEYLRQSVGNEAEIWLGLNGSAYTNTWVDMTGARIAYKNWETEITAQPDGGFGYFGENCAVLSGAANGKWFDKRCRDQLPYICQFGIV
2. 056-53.H1G ATRIMER complex (designed binder, Homotrimer of this chain (ATRIMER complex)., not shown: A possible extra N-terminal Ser from the ompA junction is left out) EPPTQKPKKIVNAKKDVVNTKMFEELKSRLDTLAQEVALLKEQQALQTVCLKGTKVHMKCFLAFTQTKTFHEASEDCISRGGTLSTPQTGSENDALYEYLRQSVGNEAEIWLGLNSGHWRAVWVDMTGARIAYKNWETEITAQPDGGFGVFGENCAVLSGAANGKWFDKRCRDQLPYICQFGIV

[0.000359, 0.000489]

Sourced from patent US20110086806A1
